# method_description: NCI Yeast Anticancer Drug Screen. Data for the bub3 strain (AID 167)
# stated_conditions: S. cerevisiae bub3 mutant strain, at 50.0 µM
About 79,000 compounds went through this panel and 15% of them were active in at least one assay; those are over-represented in the sample as a whole. Activity calls are given as the source filed them. Cut-off read from the data, not from the text of the source: active = growth inhibition above about 70%; inactive = the rest.
Classes used: active, inactive

{"columns": ["molecule", "assigned_category"],
 "data": [
  ["Cc1cc(O)ccc1N=Nc1ccc(S(=O)(=O)O)cc1", "inactive"],
  ["CC1(c2ccc(C(O)c3ccccc3)s2)OCCO1 (stereo not given)", "inactive"],
  ["CCSCCOC(=S)Nc1ccccc1", "inactive"],
  ["COC(=O)c1ccccc1C(=O)O", "inactive"],
  ["CCCCCCOc1ccc(OCCCC[N+]2(CC)CCCCC2)cc1", "active"],
  ["COC1OC(COC(=O)c2ccc([N+](=O)[O-])cc2)C(SC#N)C1O (stereo not given)", "inactive"],
  ["Nc1ccc(-c2ccccc2)cc1[N+](=O)[O-]", "inactive"],
  ["CCOC(=O)NC(=O)c1cn(CCCCCCOC(=O)NCCCCCCNC(=O)OCCCCCCn2cc(C(=O)NC(=O)OCC)c(=O)[nH]c2=O)c(=O)[nH]c1=O", "inactive"],
  ["O=C(Nc1ccc(Cl)cc1)Nc1ccc(Cl)nn1", "inactive"],
  ["CCCCCCn1cnc2c(=S)nc[nH]c21", "inactive"],
  ["CCCCCCCN=C(N)CSSCC(N)=NCCCCCCC", "active"],
  ["O=C1CSC(=S)N1.[Cu+2]", "inactive"],
  ["OCC(O)C(O)C(CN=Cc1ccccc1O)N=Cc1ccccc1O (stereo not given)", "inactive"],
  ["CC(C)N1C(=O)c2cccc3c(Br)ccc(c23)C1=O", "active"],
  ["CC1(C)C=C(O)C=C(O)C1", "inactive"],
  ["CCCCCCNC(=O)/C(=C\\c1ccc(Cl)cc1Cl)NC(=O)c1ccccc1", "inactive"],
  ["O=C(CN(Cc1ccccc1)Cc1ccccc1)NC(=O)c1ccccc1", "inactive"],
  ["N#C/C=C/c1ccc(Cl)cc1", "inactive"],
  ["NC(=O)N=C(NC(N)=O)NC(N)=O", "inactive"],
  ["CSc1nc2ccc(NCn3c(=O)sc4cc(Br)ccc43)cc2s1", "inactive"],
  ["CC1=C(O)C(=O)C2C(=O)C1C1Cc3ccccc3C21 (stereo not given)", "inactive"],
  ["CCC(=O)CCc1ccc(OC)cc1", "inactive"],
  ["CC(=O)C1(C(C)=O)OC2c3ccccc3C=CN2C=C1C=O (stereo not given)", "inactive"],
  ["OC(CCNC12CC3CC(CC(C3)C1)C2)c1ccccc1 (stereo not given)", "inactive"],
  ["CC1(C)CC(=O)C(C(CCC2CCCCC2=O)C2C(=O)CC(C)(C)CC2=O)C(=O)C1 (stereo not given)", "inactive"]
]}
